Reference for the values: the nanobody polyreactivity screen of Harvey et al. (2022)

assay.notes: yeast display, Sf9 membrane polyspecificity reagent, FACS + sequencing; frameworks hold sequencing errors
endpoint.name: polyreactivity (PSR sort gate)

Reference set (5 entries):
QVQLVESGRGLVQAGGSLRLSCAASGLIFGRNAMGWYIQAPGKERECVAANTSGGSTYYADSVKGRFTISRDNAKNSVYLQMNSLKPEDTAVYYCAADVVDLYLLDYWGQGTQVTVSS low polyreactivity
QVQLVESGGGLVQAGGSLRLSCAASGRIFSRNAMGWYRQAPGKERELVAAITSGGSTYYADSVKGRFTISRDNAKNTVYLQMNSLKPEDTAVFYCAKRLTYYSWYHRYDYWGQGTQVTVLS high polyreactivity
QVQLVESGGGLVQAGGSLRLSCAASGSIFGRNDMGWYRQAAGKERELVAAISKRGGRTYYADSVKGRFTISRDNAKNTVYLQMNSLKPEDTAVYYCAADQPTLAYPGGYSAGMDYWGQGTQVTVSS high polyreactivity
QVHLVESGGGLVQAGGSLRLSCAASGRTFYGNAMGWYRQATGKERELVAAINRDGGTYYADSVKGRFTISRDNAKNTVYLQMNSLKTEDTAVYYCNAVKRGIRYGYWGQGTQVTVSS high polyreactivity
QVQLVESGGGLVQAGGSLRLSCAASGSTFLTNAMGWYRQAPGKERELVAAIRTSGGSTYYADSVKGRFTSSRDNAKKTVYVLMNSLKPEDTAVYYCAASYRRRRFSEYYYWGQGTQVTVAS high polyreactivity

Look at this sequence and give its reported polyreactivity (PSR sort gate). `QVQLVESGGGLVQAGGSLRLSCAASGLTLRNYAMGWYRQAPGKERELVAAITTGGGRTYYADSVKGRFTISRDYAKNTVFLQMKSLKPEDTAVYYCAAEGAILSSDKQSLWRFDYWGQGTQVTVSS`
low polyreactivity

// next record `QVQLVESGGGLVQAGGSLRLSCAASGSTFSGYDMGWYRQAPGKERELVAAISKSGGRTYYADSVKGRFTISRDNAKNTVYLQMKSLKPEDTAVYYCNTDSPYDTYYFLWWREDYYWGQGTQVTVSS`
low polyreactivity

// next record `QGQRVESGGGLVQAGGSLRLSCAASGSIFSYNTMGWYRQAPGKEREFVATIDWRDGSTYYADSVKGRFTISRDNAKNTVYLQMNSLKPEDTAVYYCATYYIVVEDNYWGQGTQVTVSS`
high polyreactivity

// next record `QVHLVESAGGLVQAGGSLRLTCAASGSTFLFYAMGMYRQAPGKERELVAAISRSGTSTYYADSVKGRFTISRDNAKNTVYLQMNSLKPEDTAVYYCAADDYGGYYYWGQGTQVTVSS`
high polyreactivity

// next record `QVQLVESGGGLVQAGGSLRLSCAASGITFRQNTMGSYRQAPGKEGELVAAITSSGRTYYADSVKGRFTISRDNAKNTVYLQMNSLKPEDSAVYYCAADTYYFGYGYWGQGTQVTVSS`
high polyreactivity

// next record `QVQLVESGGGLVQAGGSLRLSCAASGRTFKDYVMGWYRQAPGKERELVAAITWRGGRTYYADSVKGRFTISRDNAKNTVYLQMNSLKPEDTAVYYCAAAEYFVSGGIMDYWGQGTQVTVSS`
high polyreactivity

----------
assay.notes: yeast display, Sf9 membrane polyspecificity reagent, FACS + sequencing; frameworks hold sequencing errors
endpoint.name: polyreactivity (PSR sort gate)

Reference set (5 entries):
QVQLVESGGGLVQAGGSLRLSSAASGITFYLYAMGWYRQAPGKERELVAGISSGGSTNYADSVKGRFTISRDNAKNTVYLQMNSLKPEDTAVYYCAAKLRGYRYGYWGHGTQVTVSS high polyreactivity
QVHLVESGGALVQAGGRLRLSCAASGSIFGRNAMGWYRQAPGKERELVAVISKRSGNTYYADSVKGRFTISRDNAKNTVYLQMNSLKPEHTAVYYCNAVDQKLLRYDYWGQGTEVTVSS high polyreactivity
QVQLVESGGGLVQAGGSLRLSCAASGFTFSPYTMGWYRQAPGKERELVATIRYDGTSTYYADSVKGRFTISRDYAKNTVYLQMNSLKPEDTAVYFCAADIWRVYSTFYYWGQGTQVTVSS low polyreactivity
QVQLVESGGGLVQAGGSLRLSCAASGSIFRGKAMGWSRQAPGKERELVAGINRAGSTKYADSVKGRFTISRDNAKNTVYLQMNSLKPEDTAVYYCAAVRYERGLWSDYWGLGTQVTVSS high polyreactivity
QVQLVESGGVLLQAGGSLRLTCAASGSIFQYNALVGYRQAPGKVREFVAAITRGDSTYYADSVKGRFTISRDNAKNTVYLQMNSLKADDTAVYYCAKRGWFYGGRDYWGQGTQVTVSS high polyreactivity

Look at this sequence and give its reported polyreactivity (PSR sort gate). `QVHLVESGGGLVQAGGSLRLSCAASGSTLYWYAMGWYRQAPGKERELVARITVSGGSTSYADSVKGRFTISRDNAKNTVYLQMNSLKPEDTAVYYCAARRYWTGYYYWGQGTQVTVSS`
high polyreactivity

// next record `QVQLVESGGGLEQAGGSLRLSCAASGRTLPIYAMGWYIQAPGKERELVAAISWSGASTYADSVKGRFTISRDNAKNTVYLQMTSLKPEETAVYYCAAYYVYWYSSYGYGYWGQGTQVTVSS`
low polyreactivity

// next record `QVQLVESGGGLVQAGGSLRLSCAASGSTFGQYVMGWYRQAPGKERELVAAITYSGGSTYYADSVKGRFTISRDNAKNTVYLQMNSLKPEDTAVYYCAARGRRDGYSRVPRGYWGQGTQVTVSS`
high polyreactivity

// next record `QVQLVESGGGLVQAGGSLRLSCAASGITFDKYAMGWYRQAPGKERELVAAISGSDGSTYYADSVKGRFTISRDNAKNTVYLQMNSLKPEDTAVYYCAAESEYAGTYEYDYWGQGTQVTVSS`
low polyreactivity

// next record `QLQLVESGRGLVQAGGSLRLSCAASGFTFRTYAKGWYRQAPGKERELVAAITVSGGTYYADSVKGRFTISRDNAKNTVYLQMNSLKPEDTAVYYCTAKRFRTGFDYWGQGTQVTVSS`
low polyreactivity

// next record `QVQLVESGGGIVQAGGSLRLSCAASGRTLQIYAMGRYRQAPGKERELVAAISSSGGSTYYADSVKGRFTISRDNEKNTVYLQMNSLKPEDTAVYYCAVDGYGYKDDYWGQGTQVTVSS`
high polyreactivity
